Attribution: patent US20220213181A1

- testSystem: T1, Cynomolgus monkey ANGPTL4(26-406)-FLAG-His6-Avi (cynomolgus monkey, biotin on the C-terminal Avi tag (BirA) where the protein is immobilised)
- T1 construct: also called Cyno ANGPTL4 (26-406)
- T1 chain: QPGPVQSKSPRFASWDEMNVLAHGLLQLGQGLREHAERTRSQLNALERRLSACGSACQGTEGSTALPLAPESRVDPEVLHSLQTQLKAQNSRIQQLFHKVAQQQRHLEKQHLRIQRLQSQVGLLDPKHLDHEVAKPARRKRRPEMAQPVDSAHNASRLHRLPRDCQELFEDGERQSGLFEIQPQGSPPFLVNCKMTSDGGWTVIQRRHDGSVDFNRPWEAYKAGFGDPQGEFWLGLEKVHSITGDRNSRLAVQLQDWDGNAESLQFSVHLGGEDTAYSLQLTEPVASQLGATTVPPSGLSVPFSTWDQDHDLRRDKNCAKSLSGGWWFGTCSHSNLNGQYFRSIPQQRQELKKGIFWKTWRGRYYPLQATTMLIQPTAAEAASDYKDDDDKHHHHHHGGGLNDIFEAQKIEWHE
- assayName: SET (solution equilibrium titration), MSD detection, IgG
measurementLabel: Kd
Hey, just the number and the unit after it is fine.

Consider the reported Kd for these binders:
NEG319 (antibody, human IgG1, kappa, V domains shown, humanized, hIgG1/kappa, parental antibody 14P18) VH: QVQLVQSGAEVKKPGASVKVSCKASGYTFTSFWITWVRQAPGQGLEWMGDIYPGGANTNYNEKLQGRVTLTVDTSTSTAYMELRSLRSDDTAVYYCARSPPQVGPFDYWGQGTLVTVSS VL: DIQMTQSPSSLSASVGDRVTITCQASEYIINWLAWYQQKPGKAPKLLISGATGLETGVPSRFSGSGSGKDYTFTISSLQPEDIATYYCQQYWSIPWTFGQGTKLEIKR = 8 pM
NEG315 (antibody, human IgG1, kappa, V domains shown, humanized, hIgG1/kappa, parental antibody 37P1) VH: QVQLVQSGAEVKKPGASVKVSCKASGYTFTNYWITWVRQAPGQGLEWMGDFYPGGGNTNYNAKLQGRVTLTVDTSTSTAYMELRSLRSDDTAVYYCARSPPQVAPFDYWGQGTLVTVSS VL: DIQMTQSPSSLSASVGDRVTITCQASEYIYNWLGWYQQKPGKAPKLLISGASGLETGVPSRFSGSGSGKDYTFTISSLQPEDIATYYCQQYWSTPWTFGQGTKLEIKR = 21 pM

Kindly review the next binder as well.
Record NEG278 (antibody, human IgG1, kappa, V domains shown, humanized, hIgG1/kappa, parental antibody 19C16) VH: QVQLVQSGAEVKKPGASVKVSCKASAYTFTSSWMQWVRQAPGQGLEWMGEIDPSDNYANYNQKFQGRVTLTVDTSTSTAYMELSSLRSEDTAVYYCASGSYFSNFFDYWGQGTLVTVSS VL: EIVMTQSPATLSVSPGERATLSCKASQDIGSNLNWLQQKPGQAPRRLIYAASVREPGIPARFSGSRSGSEYTLTISSLQSEDFAVYYCLQYASSPWTFGQGTKVEIKR . Reported Kd: 20 pM
